# measuredTarget: Nrg2 (UniProt P38082)
# Sequence: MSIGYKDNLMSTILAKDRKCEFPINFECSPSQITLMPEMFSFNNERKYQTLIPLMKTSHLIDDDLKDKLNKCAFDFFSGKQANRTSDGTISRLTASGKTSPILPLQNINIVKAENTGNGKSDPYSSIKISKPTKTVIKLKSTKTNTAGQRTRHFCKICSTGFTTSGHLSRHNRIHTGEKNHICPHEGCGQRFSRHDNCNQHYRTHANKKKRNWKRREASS
# assayOverview: PBM E-score (8-mer binding enrichment) (E-score (-0.5 to 0.5)); higher = stronger / more preferred TF binding
# testConditions: protein concentration: 100 nM; construct: GST-full length
The full ranking holds about 33,000 sequences; the median of “E-score (-0.5 to 0.5)” is about -8e-05, and the highest 2% start at about 0.23. Many of the other results were omitted from the sample, so the highest values are more common in it than they were.
Binary classification by PBM E-score, with 0.2 as an inclusive lower bound for yes (1); all other cases are no (0).

>>> label("CCCTGTGC")
"yes (1)"
>>> label("CCCTGAAG")
"yes (1)"
>>> label("GGGTCCAA")
"yes (1)"
>>> label("CCCTGTGA")
"no (0)"
>>> label("ATGGAATA")
"yes (1)"
>>> label("CCCTGAGG")
"yes (1)"
>>> label("CGAAGACG")
"no (0)"
>>> label("AGGGAATG")
"no (0)"
>>> label("ACCTGAGC")
"no (0)"
>>> label("GTGGAATA")
"no (0)"
>>> label("AATGAAGT")
"yes (1)"
>>> label("AATGAAGG")
"no (0)"
>>> label("GCCTGAGC")
"no (0)"
>>> label("CCCTGAGA")
"yes (1)"
>>> label("GCCTGAGA")
"no (0)"
>>> label("CCCTGAAC")
"yes (1)"
>>> label("CACTGAAA")
"no (0)"
>>> label("CACTGAGG")
"no (0)"
>>> label("AGGTCCAC")
"no (0)"
>>> label("TACTGAAA")
"yes (1)"
>>> label("GCCTGAAC")
"no (0)"
>>> label("CTGGAATC")
"no (0)"
